Just for reference, patent US20260092076A1 is where these values come from.

- targetDesc: NLRP3 (Homo sapiens)
- Sequence (Q96P20 whole entry): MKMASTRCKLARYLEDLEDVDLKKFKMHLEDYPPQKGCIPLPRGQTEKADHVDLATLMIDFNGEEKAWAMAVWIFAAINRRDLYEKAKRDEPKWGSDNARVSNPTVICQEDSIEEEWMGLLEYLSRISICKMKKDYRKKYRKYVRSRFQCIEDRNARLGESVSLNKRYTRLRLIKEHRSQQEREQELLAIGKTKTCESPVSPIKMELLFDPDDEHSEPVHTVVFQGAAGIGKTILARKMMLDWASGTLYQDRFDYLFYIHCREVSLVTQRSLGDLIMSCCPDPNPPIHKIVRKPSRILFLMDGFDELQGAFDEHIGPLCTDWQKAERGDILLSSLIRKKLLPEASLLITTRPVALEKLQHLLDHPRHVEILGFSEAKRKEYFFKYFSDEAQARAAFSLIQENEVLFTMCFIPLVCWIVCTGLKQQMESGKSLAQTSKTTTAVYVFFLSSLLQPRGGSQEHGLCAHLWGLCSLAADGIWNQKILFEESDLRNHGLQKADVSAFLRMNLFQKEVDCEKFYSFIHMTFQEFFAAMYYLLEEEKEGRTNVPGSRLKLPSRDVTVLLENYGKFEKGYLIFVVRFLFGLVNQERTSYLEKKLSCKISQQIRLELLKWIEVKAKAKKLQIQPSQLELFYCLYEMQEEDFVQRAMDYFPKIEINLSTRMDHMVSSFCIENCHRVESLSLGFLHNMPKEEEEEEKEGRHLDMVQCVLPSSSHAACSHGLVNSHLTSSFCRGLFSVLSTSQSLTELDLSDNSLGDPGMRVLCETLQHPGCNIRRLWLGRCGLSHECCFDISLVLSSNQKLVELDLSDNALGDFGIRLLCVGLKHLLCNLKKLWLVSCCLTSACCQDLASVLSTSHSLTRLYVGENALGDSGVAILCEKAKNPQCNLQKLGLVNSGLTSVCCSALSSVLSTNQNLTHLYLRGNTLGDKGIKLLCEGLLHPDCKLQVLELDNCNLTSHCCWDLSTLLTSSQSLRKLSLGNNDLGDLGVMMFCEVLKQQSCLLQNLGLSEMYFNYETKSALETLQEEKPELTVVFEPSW
- testName: THP-1 cells pyroptosis assay
- Type: cell-based
- Parameters: Seed THP-1 cells (25,000 cells/well) containing 1.0 μg/ml LPS in 40 μl of RPMI medium; host or cells: THP-1 cells, LPS-primed, nigericin-stimulated
- details: THP-1 cells with 1.0 μg/ml LPS, compound 3 hours, nigericin 5 μM 1 hr, resazurin readout
propertyLabel: IC50 (nM)

[1] Cc1cc(C#N)cc(O)c1-c1ccc2oc(N3Cc4c[nH]c(=O)cc4C3)nc2n1
[2] Cc1cc(Cl)cc(O)c1-c1ccc2oc(N3Cc4cccc(F)c4C3)nc2n1
[3] Cc1cc(C(F)(F)F)cc(O)c1-c1ccc2oc(N3Cc4c[nH]c(=O)cc4C3)nc2n1
Could you put the items above in increasing order of their IC50? Please list the labels in the order you were asked to rank them.
3, 1, 2
(3: 0.7 nM, 1: 7.7 nM, 2: 263 nM)

[A] Cc1cc(Cl)cc(O)c1-c1ccc2oc(N3Cc4ccc(O)cc4C3)nc2n1
[B] Cc1cc(Cl)cc(O)c1-c1ccc2oc(N3CCc4[nH]c(=O)ncc4C3)nc2n1
[C] Cc1cc(Cl)cc(O)c1-c1ccc2oc(N3Cc4ccc5c(c4C3)OCO5)nc2n1
[D] COc1cc2c(cn1)CN(c1nc3nc(-c4c(C)cc(C(F)(F)F)cc4O)ccc3o1)C2
[E] Cc1cc(C(F)(F)F)cc(O)c1-c1ccc2oc(N3Cc4cc(=O)n(C)nc4C3)nc2n1
Please give the order of these compounds when sorted by IC50, largest value leading. Please list the labels in the order you were asked to rank them.
C, A, B, E, D
(C: 144 nM, A: 69.9 nM, B: 46.3 nM, E: 20.7 nM, D: 2 nM)

[a] Cc1cc(Cl)cc(O)c1-c1ccc2oc(N3CCc4c(C#N)cccc4C3)nc2n1
[b] Cc1cc(C(F)(F)F)cc(O)c1-c1ccc2oc(N3Cc4ccc(=O)n(C)c4C3)nc2n1
[c] Cc1cc(Cl)cc(O)c1-c1ccc2oc(N3Cc4ccccc4C3)nc2n1
[d] Cc1cc(C(F)(F)F)cc(O)c1-c1ccc2oc(N3Cc4cc(=O)n(C)cc4C3)nc2n1
[e] COc1cccc2c1CCN(c1nc3nc(-c4c(C)cc(Cl)cc4O)ccc3o1)C2
Sort the compounds on IC50; start with the lowest figure. Please list the labels in the order you were asked to rank them.
d, b, c, a, e
(d: 3.3 nM, b: 22.3 nM, c: 90 nM, a: 447 nM, e: 675 nM)
